setup conditions: in acetone, 323.15 K
experimental endpoint: solubility (mole fraction)
Answer using only a numeral; do not append any unit.

solubility (mole fraction) reported for this compound O=S(=O)([O-])c1cccc2ccccc12.[Na+] : 0.0006

###

setup conditions: in isopropanol, 318.15 K
experimental endpoint: solubility (mole fraction)
Answer using only a numeral; do not append any unit.

solubility (mole fraction) reported for this compound O=S(=O)([O-])c1cccc2ccccc12.[Na+] : 0.000886

###

setup conditions: in acetone, 288.15 K
experimental endpoint: solubility (mole fraction)
Answer using only a numeral; do not append any unit.

solubility (mole fraction) reported for this molecule O=S(=O)([O-])c1cccc2ccccc12.[Na+] : 0.000156

###

setup conditions: in 1,4-dioxane, 283.15 K
experimental endpoint: solubility (mole fraction)
Answer using only a numeral; do not append any unit.

solubility (mole fraction) reported for this compound O=S(=O)([O-])c1cccc2ccccc12.[Na+] : 0.000497

###

setup conditions: in ethyl acetate, 298.15 K
experimental endpoint: solubility (mole fraction)
Answer using only a numeral; do not append any unit.

solubility (mole fraction) reported for this compound O=S(=O)([O-])c1cccc2ccccc12.[Na+] : 0.000119

###

setup conditions: in isopropanol, 288.15 K
experimental endpoint: solubility (mole fraction)
Answer using only a numeral; do not append any unit.

solubility (mole fraction) reported for this molecule O=S(=O)([O-])c1cccc2ccccc12.[Na+] : 0.000204

###

setup conditions: in ethanol, 278.15 K
experimental endpoint: solubility (mole fraction)

solubility (mole fraction) reported for this molecule O=S(=O)([O-])c1cccc2ccccc12.[Na+] : 0.000297

###

setup conditions: in acetone, 318.15 K
experimental endpoint: solubility (mole fraction)
Answer using only a numeral; do not append any unit.

solubility (mole fraction) reported for this compound O=S(=O)([O-])c1cccc2ccccc12.[Na+] : 0.000501

###

setup conditions: in ethanol, 283.15 K
experimental endpoint: solubility (mole fraction)
Answer using only a numeral; do not append any unit.

solubility (mole fraction) reported for this compound O=S(=O)([O-])c1cccc2ccccc12.[Na+] : 0.000386

###

setup conditions: in acetone, 308.15 K
experimental endpoint: solubility (mole fraction)
Answer using only a numeral; do not append any unit.

solubility (mole fraction) reported for this molecule O=S(=O)([O-])c1cccc2ccccc12.[Na+] : 0.000351

###

setup conditions: in ethanol, 313.15 K
experimental endpoint: solubility (mole fraction)
Answer using only a numeral; do not append any unit.

solubility (mole fraction) reported for this molecule O=S(=O)([O-])c1cccc2ccccc12.[Na+] : 0.00167

###

setup conditions: in 1,4-dioxane, 298.15 K
experimental endpoint: solubility (mole fraction)
Answer using only a numeral; do not append any unit.

solubility (mole fraction) reported for this compound O=S(=O)([O-])c1cccc2ccccc12.[Na+] : 0.000842

###

setup conditions: in ethanol, 323.15 K
experimental endpoint: solubility (mole fraction)

solubility (mole fraction) reported for this compound O=S(=O)([O-])c1cccc2ccccc12.[Na+] : 0.00277

###

setup conditions: in 1,4-dioxane, 278.15 K
experimental endpoint: solubility (mole fraction)
Answer using only a numeral; do not append any unit.

solubility (mole fraction) reported for this compound O=S(=O)([O-])c1cccc2ccccc12.[Na+] : 0.0004

###

setup conditions: in ethanol, 288.15 K
experimental endpoint: solubility (mole fraction)
Answer using only a numeral; do not append any unit.

solubility (mole fraction) reported for this molecule O=S(=O)([O-])c1cccc2ccccc12.[Na+] : 0.000513

Source: BigSolDB 2.1
